B1: library; a variant is named by its letters at N, in order (parent)
chain: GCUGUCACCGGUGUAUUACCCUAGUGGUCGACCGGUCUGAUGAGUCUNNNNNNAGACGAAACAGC

- Variants of: B1
- method.description: FACS-Seq fitted mean relative fluorescence mCherry/BFP without ligand (log10 relative fluorescence); ligand: hypoxanthine (xanthine aptamer); higher = higher reporter protein expression
- settings: HEK293T, ligand present: no
Measured FACS-Seq fitted mean (log10), listed per entry.

Would you please look over these solved cases?
GCUGUCACCGGUGUAUUACCCUAGUGGUCGACCGGUCUGAUGAGUCUAGUCCUAGACGAAACAGC [AGUCCU]	0.767
GCUGUCACCGGUGUAUUACCCUAGUGGUCGACCGGUCUGAUGAGUCUCAACGCAGACGAAACAGC [CAACGC]	0.362
GCUGUCACCGGUGUAUUACCCUAGUGGUCGACCGGUCUGAUGAGUCUAAGGCGAGACGAAACAGC [AAGGCG]	0.0654
GCUGUCACCGGUGUAUUACCCUAGUGGUCGACCGGUCUGAUGAGUCUCAGCAUAGACGAAACAGC [CAGCAU]	0.36
GCUGUCACCGGUGUAUUACCCUAGUGGUCGACCGGUCUGAUGAGUCUAGUUAAAGACGAAACAGC [AGUUAA]	0.799

**Q:** Consider the variant shown here: GCUGUCACCGGUGUAUUACCCUAGUGGUCGACCGGUCUGAUGAGUCUCUCGAUAGACGAAACAGC [CUCGAU] What is its recorded FACS-Seq fitted mean (log10)?
**A:** 0.52

**Q:** Next variant up: GCUGUCACCGGUGUAUUACCCUAGUGGUCGACCGGUCUGAUGAGUCUACGGGUAGACGAAACAGC [ACGGGU]
**A:** 0.0468

**Q:** Next variant up: GCUGUCACCGGUGUAUUACCCUAGUGGUCGACCGGUCUGAUGAGUCUAAUAUGAGACGAAACAGC [AAUAUG]
**A:** 0.333

**Q:** Next variant up: GCUGUCACCGGUGUAUUACCCUAGUGGUCGACCGGUCUGAUGAGUCUUGGGUAAGACGAAACAGC [UGGGUA]
**A:** 0.491

**Q:** Next variant up: GCUGUCACCGGUGUAUUACCCUAGUGGUCGACCGGUCUGAUGAGUCUAGUAUAAGACGAAACAGC [AGUAUA]
**A:** 0.449

**Q:** Next variant up: GCUGUCACCGGUGUAUUACCCUAGUGGUCGACCGGUCUGAUGAGUCUCAAGGUAGACGAAACAGC [CAAGGU]
**A:** 0.232

**Q:** Next variant up: GCUGUCACCGGUGUAUUACCCUAGUGGUCGACCGGUCUGAUGAGUCUAGCGACAGACGAAACAGC [AGCGAC]
**A:** -0.228

**Q:** Next variant up: GCUGUCACCGGUGUAUUACCCUAGUGGUCGACCGGUCUGAUGAGUCUCAUGACAGACGAAACAGC [CAUGAC]
**A:** -0.299

**Q:** Next variant up: GCUGUCACCGGUGUAUUACCCUAGUGGUCGACCGGUCUGAUGAGUCUUGGCGAAGACGAAACAGC [UGGCGA]
**A:** 0.345

**Q:** Next variant up: GCUGUCACCGGUGUAUUACCCUAGUGGUCGACCGGUCUGAUGAGUCUGAAAACAGACGAAACAGC [GAAAAC]
**A:** 0.271
